# target_under_test: T1, HPV E6 peptide on HLA-A*11:01 (human)
# T1 peptide: TTLEQQYNK
# test_method_notes: multimer staining
measured_metric: binding result

| binder | observed_measurement |
| --- | --- |
| TCR090 (TCR, V domains shown) Valpha: GQQVMQIPQYQHVQEGEDFTTYCNSSTTLSNIQWYKQRPGGHPVFLIQLVKSGEVKKQKRLTFQFGEAKKNSSLHITATQLTDVGTYFCAGPVLTGGGNKLTFGTGTQLKVEL Vbeta: DSGVTQTPRYLITATGQRVTLRCSPRSGDLSVYWYQQSLDQGLQFLIQYYNGEERAKGNILERFSAQQFPDLHSELNLSSLELGDSALYFCASSVGGPNTGELFFGEGSRLTVL | recognises |
| TCR028 (TCR, V domains shown) Valpha: GQQVMQIPQYQHVQEGEDFTTYCNSSTTLSNIQWYKQRPGGHPVFLIQLVKSGEVKKQKRLTFQFGEAKKNSSLHITATQTTDVGTYFCAGPILTGGGNKLTFGTGTQLKVEL Vbeta: DSGVTQTPKHLITATGQRVTLRCSPRSGDLSVYWYQQSLDQGLQFLIQYYNGEERAKGNILERFSAQQFPDLHSELNLSSLELGDSALYFCASGLSGPNTGELFFGEGSRLTVL | recognises |
| TCR013 (TCR, V domains shown) Valpha: GQQVMQIPQYQHVQEGEDFTTYCNSSTTLSNIQWYKQRPGGHPVFLIQLVKSGEVKKQKRLTFQFGEAKKNSSLHITATQTTDVGTYFCAGPKITGGGNKLTFGTGTQLKVEL Vbeta: DSGVTQTPKHLITATGQRVTLRCSPRSGDLSVYWYQQSLDQGLQFLIQYYNGEERAKGNILERFSAQQFPDLHSELNLSSLELGDSALYFCASSVGGGPNYGYTFGSGTRLTVV | recognises |
| TCR010 (TCR, V domains shown) Valpha: AQSVTQLDSHVSVSEGTPVLLRCNYSSSYSPSLFWYVQHPNKGLQLLLKYTSAATLVKGINGFEAEFKKSETSFHLTKPSAHMSDAAEYFCVVSLSGGYNKLIFGAGTRLAVHP Vbeta: DSGVTQTPKHLITATGQRVTLRCSPRSGDLSVYWYQQSLDQGLQFLIQYYNGEERAKGNILERFSAQQFPDLHSELNLSSLELGDSALYFCASSVTGSGYTFGSGTRLTVV | recognises |
